Test system: proximal tubule kidney (PTK) module
PROTOCOL SUMMARY: Proximal tubule kidney (PTK) module, vitamin D3 metabolites
RUN CONDITIONS: 0-120 h; 50% liver-conditioned
ENDPOINT LABEL: Concentration in kidney efflux media (ng/mL)
Give a bare numeral; the unit ng/mL is implied.

// solved cases for Concentration in kidney efflux media follow
COMPOUND: C=C1CC[C@H](O)C/C1=C/C=C1\CCC[C@]2(C)[C@@H]([C@H](C)CCCC(C)C)CC[C@@H]12 [Vitamin D3, vitamin D3, reference compound]
MEASUREMENT TARGET: proximal tubule kidney (PTK) module
UNIT OF MEASURE: ng/mL
Concentration in kidney efflux media: 1.0
//
COMPOUND: C=C1CC[C@H](O)[C@H](O)/C1=C/C=C1\CCC[C@]2(C)[C@@H]([C@H](C)CCCC(C)(C)O)CC[C@@H]12 [4β,25-(OH)2 Vitamin D3, 4β,25-(OH)2 vitamin D3]
MEASUREMENT TARGET: proximal tubule kidney (PTK) module
UNIT OF MEASURE: ng/mL
Concentration in kidney efflux media: 0.0076
//
COMPOUND: C=C1CCC(O)C/C1=C\C=C1\CCCC2(C)C1CCC2C(C)CCC(O)C(C)(C)O (stereo not shown) [24,25-(OH)2 Vitamin D3, 24,25-(OH)2 vitamin D3]
MEASUREMENT TARGET: proximal tubule kidney (PTK) module
UNIT OF MEASURE: ng/mL
Concentration in kidney efflux media: 0.11

Data request: May I ask what Concentration in kidney efflux media has been recorded for C=C1CC[C@H](O)C/C1=C/C=C1\CCC[C@]2(C)[C@@H]([C@H](C)CCCC(C)(C)O)CC[C@@H]12 [25-(OH) Vitamin D3, 25-(OH) vitamin D3] ?
Data returned: 0.29

* * *

Test system: proximal tubule kidney (PTK) module
PROTOCOL SUMMARY: Proximal tubule kidney (PTK) module, vitamin D3 metabolites
RUN CONDITIONS: 0-48 h; 50% liver-conditioned; N=2
ENDPOINT LABEL: Concentration in kidney efflux media
Write the numeric value and follow it with the unit.

The following molecules have reported results that may help.
MOLECULE: C=C1CC[C@H](O)C/C1=C/C=C1\CCC[C@]2(C)[C@@H]([C@H](C)CCCC(C)(C)O)CC[C@@H]12
ENDPOINT LABEL: Concentration in kidney efflux media
VALUE MEASURED: 0.12 ng/mL
--
MOLECULE: C=C1CCC(O)C/C1=C\C=C1\CCCC2(C)C1CCC2C(C)CCC(O)C(C)(C)O (stereo not shown)
ENDPOINT LABEL: Concentration in kidney efflux media
VALUE MEASURED: 0.082 ng/mL
--
MOLECULE: C=C1CC[C@H](O)[C@H](O)/C1=C/C=C1\CCC[C@]2(C)[C@@H]([C@H](C)CCCC(C)(C)O)CC[C@@H]12
ENDPOINT LABEL: Concentration in kidney efflux media
VALUE MEASURED: 0.0033 ng/mL

Now look at this entry.
Data request: What value of Concentration in kidney efflux media has been reported for the following molecule? C=C1CC[C@H](O)C/C1=C/C=C1\CCC[C@]2(C)[C@@H]([C@H](C)CCCC(C)C)CC[C@@H]12 [Vitamin D3, vitamin D3, reference compound]
Data returned: 1.5 ng/mL

* * *

System: proximal tubule kidney (PTK) module
PROTOCOL SUMMARY: Proximal tubule kidney (PTK) module, vitamin D3 metabolites
RUN CONDITIONS: 0-48 h; 80% liver-conditioned
ENDPOINT LABEL: Concentration in kidney efflux media (ng/mL)
// return numeric value only (unit: ng/mL, not printed)

Worked cases, Concentration in kidney efflux media given:
MOLECULE: C=C1CC[C@H](O)C/C1=C/C=C1\CCC[C@]2(C)[C@@H]([C@H](C)CCCC(C)(C)O)CC[C@@H]12
ENDPOINT LABEL: Concentration in kidney efflux media
VALUE MEASURED: 0.23

MOLECULE: C=C1CC[C@H](O)[C@H](O)/C1=C/C=C1\CCC[C@]2(C)[C@@H]([C@H](C)CCCC(C)(C)O)CC[C@@H]12
ENDPOINT LABEL: Concentration in kidney efflux media
VALUE MEASURED: 0.0064

Data request: Returns the measured Concentration in kidney efflux media for the input molecule. Input: C=C1CC[C@H](O)C/C1=C/C=C1\CCC[C@]2(C)[C@@H]([C@H](C)CCCC(C)C)CC[C@@H]12 [Vitamin D3, vitamin D3, reference compound]
Data returned: 4.3

Data request: Tell me the measured Concentration in kidney efflux media of C=C1CCC(O)C/C1=C\C=C1\CCCC2(C)C1CCC2C(C)CCC(O)C(C)(C)O (stereo not shown) , please.
Data returned: 0.12

* * *

System: differentiated human jejunal enteroids
PROTOCOL SUMMARY: Intestine module: jejunal enteroid Transwell transport and metabolism
RUN CONDITIONS: synthetic micelles containing 100 μM vitamin D3

COMPOUND: C=C1CC[C@H](O)[C@H](O)/C1=C/C=C1\CCC[C@]2(C)[C@@H]([C@H](C)CCCC(C)(C)O)CC[C@@H]12 [4β,25-(OH)2 Vitamin D3, 4β,25-(OH)2 vitamin D3]
MEASUREMENT TARGET: differentiated human jejunal enteroids
Concentration in micelle preparation: < LOD^2 < LOD < LOD
--
COMPOUND: C=C1CC[C@H](O)C/C1=C/C=C1\CCC[C@]2(C)[C@@H]([C@H](C)CCCC(C)C)CC[C@@H]12 [Vitamin D3, vitamin D3, reference compound]
MEASUREMENT TARGET: differentiated human jejunal enteroids
Concentration in micelle preparation: 36000 ± 4200 ng/mL
--
COMPOUND: C=C1CCC(O)C/C1=C\C=C1\CCCC2(C)C1CCC2C(C)CCC(O)C(C)(C)O (stereo not shown) [24,25-(OH)2 Vitamin D3, 24,25-(OH)2 vitamin D3]
MEASUREMENT TARGET: differentiated human jejunal enteroids
Concentration in micelle preparation: < LOD^2 < LOD < LOD

* * *

Entries and their Concentration in kidney efflux media
Tested on: proximal tubule kidney (PTK) module
PROTOCOL SUMMARY: Proximal tubule kidney (PTK) module, vitamin D3 metabolites
RUN CONDITIONS: 0-120 h; 80% liver-conditioned
Your answer is read as ng/mL, so omit the unit and give the number.

Worked examples, 3 molecules total:
MOLECULE: C=C1CC[C@H](O)[C@H](O)/C1=C/C=C1\CCC[C@]2(C)[C@@H]([C@H](C)CCCC(C)(C)O)CC[C@@H]12
UNIT OF MEASURE: ng/mL
Concentration in kidney efflux media: 0.014
//
MOLECULE: C=C1CC[C@H](O)C/C1=C/C=C1\CCC[C@]2(C)[C@@H]([C@H](C)CCCC(C)C)CC[C@@H]12 [Vitamin D3, vitamin D3, reference compound]
UNIT OF MEASURE: ng/mL
Concentration in kidney efflux media: 1.4
//
MOLECULE: C=C1CC[C@H](O)C/C1=C/C=C1\CCC[C@]2(C)[C@@H]([C@H](C)CCCC(C)(C)O)CC[C@@H]12
UNIT OF MEASURE: ng/mL
Concentration in kidney efflux media: 0.48

As a next step, examine the molecule that follows.
Data request: Tell me the measured Concentration in kidney efflux media of C=C1CCC(O)C/C1=C\C=C1\CCCC2(C)C1CCC2C(C)CCC(O)C(C)(C)O (stereo not shown) , please.
Data returned: 0.16

* * *

System: static SQL-SAL liver model
PROTOCOL SUMMARY: Static 4-cell SQL-SAL liver in 96-well microplates (vitamin D3)
Assay type: in vitro ADME, human
RUN CONDITIONS: vitamin D3 experiment; 96-well 4-cell liver module, 72 h, media pooled
Method: Media without dexamethasone was used to avoid downstream toxicity to the human neurons in the NVU. […] The intestinal/liver-conditioned media efflux was collected and samples were tested by MS or transported on dry ice for testing in the kidney module, or the BBB/NVU module. Dexamethasone, normally used to maintain hepatocyte differentiation, was removed from the liver media for functional coupling to avoid downstream toxicity to the human neurons in the NVU. […]
ENDPOINT LABEL: Concentration in liver efflux media (ng/mL)
Record the value in ng/mL, omitting the unit from your answer.

A selection of reference data follows.
MOLECULE: C=C1CC[C@H](O)C/C1=C/C=C1\CCC[C@]2(C)[C@@H]([C@H](C)CCCC(C)(C)O)CC[C@@H]12 [25-(OH) Vitamin D3, 25-(OH) vitamin D3]
Concentration in liver efflux media [ng/mL]: 3.0
//
MOLECULE: C=C1CC[C@H](O)[C@H](O)/C1=C/C=C1\CCC[C@]2(C)[C@@H]([C@H](C)CCCC(C)(C)O)CC[C@@H]12 [4β,25-(OH)2 Vitamin D3, 4β,25-(OH)2 vitamin D3]
Concentration in liver efflux media [ng/mL]: 0.047
//
MOLECULE: C=C1CCC(O)C/C1=C\C=C1\CCCC2(C)C1CCC2C(C)CCC(O)C(C)(C)O (centres unmarked) [24,25-(OH)2 Vitamin D3, 24,25-(OH)2 vitamin D3]
Concentration in liver efflux media [ng/mL]: 0.25

Below: the item to evaluate.
Data request: Form field - read-out: Concentration in liver efflux media; system: static SQL-SAL liver model; submitted item: C=C1/C(=C\C=C2/CCC[C@]3(C)[C@@H]([C@H](C)CCCC(C)(C)O)CC[C@@H]23)C[C@@H](O)C[C@@H]1O [1α,25-(OH)2 Vitamin D3, 1α,25-(OH)2 vitamin D3]
Data returned: 0.0064
